meta.source: ChEMBL document CHEMBL1949569

test: Cytotoxicity against african green monkey Vero cells after 72 hrs by resazurin dye-based fluorimetric analysis; format: cell-based; conditions: chlorocebus sabaeus, Vero cells
Give measured CC50 at 72 h for each item. Keep answers brief.

I would be grateful if you could share the reported CC50 at 72 h for CC/C=C\C/C=C\C/C=C\CCCCCCCC(=O)OC[C@H](CO[C@@H]1O[C@H](CO[C@H]2O[C@H](CO)[C@H](O)[C@H](O)[C@H]2O)[C@H](O)[C@H](O)[C@H]1O)OC(=O)CCCCCCC/C=C\C/C=C\C/C=C\CC .
> 100 µg/mL

May I ask what CC50 at 72 h has been recorded for CCCCCCCC/C=C\CCCCCCCC(=O)OC[C@H](CO[C@@H]1O[C@H](CO[C@H]2O[C@H](CO)[C@H](O)[C@H](O)[C@H]2O)[C@H](O)[C@H](O)[C@H]1O)OC(=O)CCCCCCCCCCCCCCC ?
> 100 µg/mL

Could you tell me which CC50 at 72 h is on file for CC/C=C\C/C=C\C/C=C\CCCCCCCC(=O)OC[C@H](CO[C@@H]1O[C@H](CO[C@H]2O[C@H](CO)[C@H](O)[C@H](O)[C@H]2O)[C@H](O)[C@H](O)[C@H]1O)OC(=O)CCCCCCCCCCCCCCC ?
> 100 µg/mL

Which CC50 at 72 h value belongs to CCCCCCCCCCCCCCCCCCCCCCCCCCCCO ?
> 100 µg/mL

###

assay: Selectivity ratio of CC50 for african green monkey Vero cells to IC50 for microfilariae Brugia malayi; type: ADME, cell-based; conditions: Vero cells, read-out: Ratio CC50/IC50
value_kind: selectivity ratio

So what's the measured selectivity ratio for this one? CC/C=C\C/C=C\C/C=C\CCCCCCCC(=O)OC[C@H](CO[C@@H]1O[C@H](CO[C@H]2O[C@H](CO)[C@H](O)[C@H](O)[C@H]2O)[C@H](O)[C@H](O)[C@H]1O)OC(=O)CCCCCCC/C=C\C/C=C\C/C=C\CC
> 62.2

// query selectivity ratio value for entry CCCCCCCC/C=C\CCCCCCCC(=O)OC[C@H](CO[C@@H]1O[C@H](CO[C@H]2O[C@H](CO)[C@H](O)[C@H](O)[C@H]2O)[C@H](O)[C@H](O)[C@H]1O)OC(=O)CCCCCCCCCCCCCCC
> 95.2

Please give the measured selectivity ratio for this compound: CC/C=C\C/C=C\C/C=C\CCCCCCCC(=O)OC[C@H](CO[C@@H]1O[C@H](CO[C@H]2O[C@H](CO)[C@H](O)[C@H](O)[C@H]2O)[C@H](O)[C@H](O)[C@H]1O)OC(=O)CCCCCCCCCCCCCCC
> 37

# get_value(readout='selectivity ratio', item= CCCCCCCCCCCCCCCCCCCCCCCCCCCCO )
> 30.7

###

tested on: Brugia malayi; assay: Antifilarial activity against adult Brugia malayi at 31.25 ug/ml by MTT assay relative to control; format: functional
value_kind: inhibition at 31.25 µg/mL (%)
Give just the numeric value; % need not be written.

Please report the recorded inhibition at 31.25 µg/mL for CC/C=C\C/C=C\C/C=C\CCCCCCCC(=O)OC[C@H](CO[C@@H]1O[C@H](CO[C@H]2O[C@H](CO)[C@H](O)[C@H](O)[C@H]2O)[C@H](O)[C@H](O)[C@H]1O)OC(=O)CCCCCCC/C=C\C/C=C\C/C=C\CC .
82.9

Which inhibition at 31.25 µg/mL reading was recorded for the compound CCCCCCCCCCCCCCCCCCCCCCCCCCCCO ?
32.6

Can you share its inhibition at 31.25 µg/mL? I mean this compound: CC/C=C\C/C=C\C/C=C\CCCCCCCC(=O)OC[C@H](CO[C@@H]1O[C@H](CO[C@H]2O[C@H](CO)[C@H](O)[C@H](O)[C@H]2O)[C@H](O)[C@H](O)[C@H]1O)OC(=O)CCCCCCCCCCCCCCC
30
